test: Inhibition of [3H]DPDPE binding to delta opioid receptor of guinea pig brain homogenate
Bridge positions count the residues as written; N and C are the ends. Peptide text beside a SMILES is read from it.
// reported pIC50 for each item listed
// pIC50 is dimensionless: -log10 of concentration (M)

INSERT INTO results (compound, reading) VALUES
  ('CC[C@H](C)[C@@H]1NC(=O)[C@H](CCCN=C(N)N)NC(=O)[C@H](CCCN=C(N)N)NC(=O)[C@@H](NC(=O)[C@@H]2Cc3ccccc3CN2C(=O)CNC(=O)CNC(=O)[C@@H](N)Cc2ccc(O)cc2)CSSC[C@@H](C(=O)O)NC(=O)[C@@H]2CCCN2C(=O)[C@H](CCCN=C(N)N)NC1=O', 6.74),
  ('CC[C@H](C)[C@H](NC(=O)[C@H](CCCN=C(N)N)NC(=O)[C@H](CCCN=C(N)N)NC(=O)[C@H](CC(C)C)NC(=O)[C@H](Cc1ccccc1)NC(=O)CNC(=O)CNC(=O)[C@@H](N)Cc1ccc(O)cc1)C(=O)N[C@@H](CCCN=C(N)N)C(=O)N1CCC[C@H]1C(=O)N[C@@H](CCCCN)C(=O)N[C@@H](CC(C)C)C(=O)N[C@@H](CCCCN)C(=O)O', 8.39),
  ('CC[C@H](C)[C@@H]1NC(=O)[C@H](CCCN=C(N)N)NC(=O)[C@H](CCCN=C(N)N)NC(=O)[C@@H](NC(=O)[C@H](Cc2ccccc2)NC(=O)CNC(=O)CNC(=O)[C@@H](N)Cc2ccc(O)cc2)CSSC[C@@H](C(=O)N2CCC[C@H]2C(=O)N[C@@H](CCCCN)C(N)=O)NC1=O (H-YGGFCRRICPK-NH2; disulfide 5-9)', 7.51);

[Q] Could you share which pIC50 value was measured for CC[C@H](C)[C@@H]1NC(=O)[C@H](CCCN=C(N)N)NC(=O)[C@H](CCCN=C(N)N)NC(=O)[C@@H](NC(=O)[C@H](Cc2ccccc2)NC(=O)CNC(=O)CNC(=O)[C@@H](N)Cc2ccc(O)cc2)CSSC[C@@H](C(=O)N[C@@H](CCCCN)C(N)=O)NC(=O)[C@H](CCCN=C(N)N)NC1=O (H-YGGFCRRIRCK-NH2; disulfide 5-10) ?
[A] 7.08

[Q] What would you report for CC[C@H](C)[C@@H]1NC(=O)[C@H](CCCNC(=N)N)NC(=O)[C@H](CCCNC(=N)N)NC(=O)[C@@H](NC(=O)[C@H](Cc2ccccc2)NC(=O)CNC(=O)CNC(=O)[C@@H](N)Cc2ccc(O)cc2)CSSC[C@@H](C(N)=O)NC(=O)[C@H](CC(C)C)NC(=O)[C@H](CCCCN)NC(=O)[C@H]2CCCN2C(=O)[C@H](CCCNC(=N)N)NC1=O ?
[A] 8.02

---

assay: Inhibition of [3H]DPDPE binding to delta opioid receptor of guinea pig brain homogenate
Bridge positions count the residues as written; N and C are the ends. Peptide text beside a SMILES is read from it.
// reported pIC50 for each item listed
// pIC50 is dimensionless: -log10 of concentration (M)

INSERT INTO assay_data (molecule, experimental_endpoint, reading) VALUES
  ('CC[C@H](C)[C@@H]1NC(=O)[C@H](CCCNC(=N)N)NC(=O)[C@@H](NC(=O)[C@H](CC(C)C)NC(=O)[C@H](Cc2ccccc2)NC(=O)CNC(=O)CNC(=O)[C@@H](N)Cc2ccc(O)cc2)CSSC[C@@H](C(=O)N[C@@H](CCCCN)C(N)=O)NC(=O)[C@H](CCCNC(=N)N)NC1=O (H-YGGFLCRIRCK-NH2; disulfide 6-10)', 'pIC50', 9.32),
  ('CC(C)C[C@H](NC(=O)[C@H](Cc1ccccc1)NC(=O)CNC(=O)CNC(=O)[C@@H](N)Cc1ccc(O)cc1)C(=O)N[C@@H](CCCN=C(N)N)C(=O)N[C@@H](CCCN=C(N)N)C(=O)N[C@H]1CSSC[C@H](C(N)=O)NC(=O)[C@H](CC(C)C)NC(=O)[C@H](CCCCN)NC(=O)[C@@H]2CCCN2C(=O)[C@H](CCCN=C(N)N)NC1=O', 'pIC50', 8.72);

Please turn your attention to the following entry.
[Q] Could you share which pIC50 value was measured for CC(C)C[C@H](NC(=O)[C@H](Cc1ccccc1)NC(=O)CNC(=O)CNC(=O)[C@@H](N)Cc1ccc(O)cc1)C(=O)N[C@@H](CCCNC(=N)N)C(=O)N[C@@H](CCCNC(=N)N)C(=O)N[C@@H]1CSSC[C@H](C(=O)N[C@@H](CCCCN)C(N)=O)NC(=O)[C@H](CCCCN)NC(=O)[C@@H]2CCCN2C(=O)[C@H](CCCNC(=N)N)NC1=O ?
[A] 8.19

---

// reported pIC50 for each item listed
test: Inhibition of [3H]DPDPE binding to delta opioid receptor of guinea pig brain homogenate
Bridge positions count the residues as written; N and C are the ends. Square brackets hold non-standard residues; d marks the D form. Peptide text beside a SMILES is read from it. Pen = CC(C)(S)[C@H](N)C(=O)O
// pIC50 is dimensionless: -log10 of concentration (M)

Below: 2 compounds and their reported pIC50.
INSERT INTO assay_data (compound, reading) VALUES
  ('CC[C@H](C)[C@@H]1NC(=O)[C@H](CCCN=C(N)N)NC(=O)[C@H](CCCN=C(N)N)NC(=O)[C@@H](NC(=O)[C@H](Cc2ccccc2)NC(=O)CNC(=O)CNC(=O)[C@@H](N)Cc2ccc(O)cc2)C(C)(C)SSC[C@@H](C(N)=O)NC(=O)[C@@H]2CCCN2C(=O)[C@H](CCCN=C(N)N)NC1=O (H-YGGF[Pen]RRIRPC-NH2; disulfide 5-11)', 7.07),
  ('CC[C@H](C)[C@@H]1NC(=O)[C@H](CCCNC(=N)N)NC(=O)[C@H](CCCNC(=N)N)NC(=O)[C@@H](NC(=O)[C@H](Cc2ccccc2)NC(=O)CNC(=O)CNC(=O)[C@@H](N)Cc2ccccc2)CSSC[C@@H](C(N)=O)NC(=O)[C@@H]2CCCN2C(=O)[C@H](CCCNC(=N)N)NC1=O (H-FGGFCRRIRPC-NH2; disulfide 5-11)', 6.41);

[Q] Could you share which pIC50 value was measured for CC[C@H](C)[C@@H]1NC(=O)[C@H](CCCN=C(N)N)NC(=O)[C@H](CCCN=C(N)N)NC(=O)[C@@H](NC(=O)[C@H](Cc2ccccc2)NC(=O)CNC(=O)[C@@H](C)NC(=O)[C@@H](N)Cc2ccc(O)cc2)CSSC[C@@H](C(N)=O)NC(=O)[C@@H]2CCCN2C(=O)[C@H](CCCN=C(N)N)NC1=O ?
[A] 6.97
